Test Method Notes: Tissue accumulation at the site of infection (plasma, skin, skin abscess)
Setup Conditions: mouse, plasma, po, 50 mg/kg
Measurement Name: Tmax (min)
Numeric answer only, unit min assumed.

Any idea what its Tmax is? The compound is CCC(=O)/N=C1\[C@H](C)C[C@@]2(C)OC/C(=N/OCc3ccc(-c4nc(N)cs4)cn3)CO[C@H]([C@H]1C)[C@](C)(O)[C@@H](CC)OC(=O)[C@@](C)(F)C(=O)[C@H](C)[C@H]2O[C@@H]1O[C@H](C)C[C@H](N(C)C)[C@H]1O 30

---

Test Method Notes: Oral pharmacokinetics in rat
Assay type: in vivo
Setup Conditions: plasma, 10 mg/kg
Measurement Name: half-life (h)
Answer format: numeric, h implied, no suffix.

Need half-life, item CC[C@H]1OC(=O)[C@H](C)C(=O)[C@H](C)[C@@H](O[C@@H]2O[C@H](C)C[C@H](N(C)C)[C@H]2O)[C@@]2(C)C[C@@H](C)/C(=N\C(C)=O)[C@H](C)[C@@H](OC/C(=N\OCc3ccc(-c4ccno4)nc3)CO2)[C@]1(C)O 2.1

---

Test Method Notes: Oral pharmacokinetics in rat
Type: in vivo
Setup Conditions: plasma, 10 mg/kg
Measurement Name: Cmax (ng/mL)
Only the number, expressed in ng/mL, is required.

Entry CC[C@H]1OC(=O)[C@H](C)C(=O)[C@H](C)[C@@H](O[C@@H]2O[C@H](C)C[C@H](N(C)C)[C@H]2O)[C@@]2(C)C[C@@H](C)/C(=N\C(C)=O)[C@H](C)[C@@H](OC/C(=N\OCc3ccc(-c4ccno4)nc3)CO2)[C@]1(C)O [Compound 4] has what Cmax? 2540

---

Test Method Notes: Oral pharmacokinetics in rat plasma and lung tissue
Type: in vivo
Setup Conditions: 10 mg/kg PO, Plasma
Measurement Name: Tmax (h)
Give the number; h is assumed, so skip it.

Entry CC[C@H]1OC(=O)[C@H](C)C(=O)[C@H](C)[C@@H](O[C@@H]2O[C@H](C)C[C@H](N(C)C)[C@H]2O)[C@@]2(C)C[C@@H](C)/C(=N\C(C)=O)[C@H](C)[C@@H](OC/C(=N\OCc3ccc(-c4ccno4)nc3)CO2)[C@]1(C)O has what Tmax? 1.67

---

Test Method Notes: Oral pharmacokinetics in mice
Assay type: in vivo
Setup Conditions: mouse, in vivo, 15 mg/kg, read-out: AUC0-24
Measurement Name: AUC(0-t)
Write the figure, then the unit, nothing else.

Field request: AUC(0-t) | item: CC[C@H]1OC(=O)[C@H](C)C(=O)[C@H](C)[C@@H](O[C@@H]2O[C@H](C)C[C@H](N(C)C)[C@H]2O)[C@@]2(C)C[C@@H](C)/C(=N\C(C)=O)[C@H](C)[C@@H](OC/C(=N\OCc3ccc(-c4ccno4)nc3)CO2)[C@]1(C)O 9800 ng·h/mL

---

Test Method Notes: Tissue accumulation at the site of infection (plasma, skin, skin abscess)
Setup Conditions: mouse, infected skin abscess, po, 50 mg/kg
Measurement Name: half-life

Which half-life value is on record for CCC(=O)/N=C1\[C@H](C)C[C@@]2(C)OC/C(=N/OCc3ccc(-c4nc(N)cs4)cn3)CO[C@H]([C@H]1C)[C@](C)(O)[C@@H](CC)OC(=O)[C@@](C)(F)C(=O)[C@H](C)[C@H]2O[C@@H]1O[C@H](C)C[C@H](N(C)C)[C@H]1O ? 52.4 h

---

Test Method Notes: Tissue accumulation at the site of infection (plasma, skin, skin abscess)
Setup Conditions: mouse, infected skin abscess, po, 50 mg/kg
Measurement Name: Cmax

What measured Cmax goes with CCC(=O)/N=C1\[C@H](C)C[C@@]2(C)OC/C(=N/OCc3ccc(-c4nc(N)cs4)cn3)CO[C@H]([C@H]1C)[C@](C)(O)[C@@H](CC)OC(=O)[C@@](C)(F)C(=O)[C@H](C)[C@H]2O[C@@H]1O[C@H](C)C[C@H](N(C)C)[C@H]1O ? 9030 ng/mL

---

Test Method Notes: Rat PK of amino acid prodrug after IV/PO administration
Type: in vivo
Setup Conditions: plasma, 10 mg/kg IV, prodrug itself measured
Measurement Name: half-life (min)
Report the value in min with no unit label.

Report half-life for CCC(=O)/N=C1\[C@H](C)C[C@@]2(C)OC/C(=N/OCc3ccc(-c4nc(NC(=O)[C@@H](N)CC(C)C)cs4)cn3)CO[C@H]([C@H]1C)[C@](C)(O)[C@@H](CC)OC(=O)[C@@](C)(F)C(=O)[C@H](C)[C@H]2O[C@@H]1O[C@H](C)C[C@H](N(C)C)[C@H]1O please. 12

---

Test Method Notes: Tissue accumulation at the site of infection (plasma, skin, skin abscess)
Setup Conditions: mouse, uninfected skin, po, 50 mg/kg
Measurement Name: Tmax

Given CCC(=O)/N=C1\[C@H](C)C[C@@]2(C)OC/C(=N/OCc3ccc(-c4nc(N)cs4)cn3)CO[C@H]([C@H]1C)[C@](C)(O)[C@@H](CC)OC(=O)[C@@](C)(F)C(=O)[C@H](C)[C@H]2O[C@@H]1O[C@H](C)C[C@H](N(C)C)[C@H]1O [Compound 1] , state its recorded Tmax. 3 h

Where do these numbers come from? They come from patent US20090075915A1.
